Where do these numbers come from? They come from PubChem BioAssay (NCI).

Field: GI50. Provide a value for each of the compounds that follow.
# Test system: SK-MEL-28 melanoma
# Assay procedure: NCI tumour cell line growth inhibition, 48 h

Structure as smiles: O=C(O)c1ccc(C(=O)O)c(C(=O)O)c1.[NH-]C1CCCCC1[NH-].[Pt+2]
GI50: 4.97 µM
//
Structure as smiles: O=C(c1cccs1)c1nc2cc(Cl)ccc2[n+]([O-])c1C(F)(F)F
GI50: > 100 µM
//
Structure as smiles: CCOC(=O)Nc1ccc2c(c1)N(C(=O)CCN(CC)CC)c1ccccc1S2
GI50: 60.3 µM
//
Structure as smiles: O=C(O)c1cn(C2CC2)c2cc(N3CCN(C(=O)Nc4nc(-c5ccc(Br)cc5)cs4)CC3)c(F)cc2c1=O
GI50: 4.08 µM

# return GI50 for each item in the list
1. CCCOc1ccc(/C=N/Nc2cc(C)nc3ccc(Cl)cc23)cc1
2. NCCCNc1nc2ccc(Cl)cc2c2c(=O)c3cc(F)ccc3sc12
3. O=C([O-])CCc1ccccc1.O=C([O-])CCc1ccccc1.O=C([O-])CCc1ccccc1.O=C([O-])CCc1ccccc1.[Mo+2].[Mo+2]

# output
["1.73 µM", "10.1 µM", "> 100 µM"]

* * *

# Test system: SK-MEL-5 melanoma
# Assay procedure: NCI tumour cell line growth inhibition, 48 h
Quantity name: TGI (µM)
Give bare numbers, in µM.

Look over these answered cases.
Molecule: CCCCCCCCCCCCCCCC(=O)Nc1ccn(C2CCC(COP(=O)(O)OCC3OC(n4cc(F)c(=O)[nH]c4=O)CC3OC(C)=O)O2)c(=O)n1 (stereo not given)
Numeric readout: 26.9
//
Molecule: CCCNCC(O)CNc1ccc(NCC(O)CNCCC)c2c1C(=O)c1ccccc1C2=O (stereo not given)
Numeric readout: 9.76
//
Molecule: CCOC(=O)/C(=C/c1ccccc1Br)P(=O)(OCC)OCC
Numeric readout: 3.51
//
Molecule: O=C(Cc1ccc(Nc2ccnc(C(F)(F)F)c2)cc1)N/N=C/c1ccccc1O
Numeric readout: 11.1
//
Molecule: CCCCCCCC(CC(=O)NC(CO)C(=O)NC(CO)CC(C)C)OC(=O)CC(CCCCCCC)OC(=O)CC(CCCCCCC)OC1OC(C)C(O)C(OC2OC(C)C(O)C(O)C2O)C1O (stereo not given)
Numeric readout: 21.3

Could you report TGI for every entry in the following list?
1. CCN(CC)CC(O)COc1c(Br)c(Br)c(Br)c2c1OC(C)(C)C2 (stereo not given)
2. O=C1C=CC(=O)N1c1ccc(I)cc1
3. COC1=CC(=O)c2c(cc3c(c2O)-c2c(OC)cc4cc5c(c(O)c4c2OC(=O)CC(C)(O)C3)C(=O)CC(C)(O)C5)C1=O (stereo not given)
4. CCN1C(=O)N(CC)C2C1NC(=S)N2/N=C/C=C/c1ccccc1OC (stereo not given)

# output
3.24
34.1
0.606
0.158

* * *

# Test system: SK-MEL-28 melanoma
# Assay procedure: NCI tumour cell line growth inhibition, 48 h
Quantity name: TGI

Examples with their reported TGI follow.
Compound: CC(=O)OCC1OC(OC(C)=O)C(Nc2ncc(-c3ccc(C)cc3)s2)C(OC(C)=O)C1OC(C)=O (stereo not given)
TGI: 31.2 µM

Compound: S=C(Nc1ccc2c(c1)oc1ccccc12)c1cccs1
TGI: > 100 µM

Items follow; give TGI for each.
1. CCCOc1ccc(/C=N/Nc2cc(C)nc3ccc(Cl)cc23)cc1
2. c1ccc(-c2cn(-c3ccccc3)c(-c3ccccc3)n2)cc1
3. O=C(Nc1ccc(I)cc1)c1cccc([N+](=O)[O-])c1O
4. O=C(Cc1ccccc1)N/N=C(/c1nc2ccc([N+](=O)[O-])cc2[nH]c1=O)C(O)c1ccccc1Cl (stereo not given)
5. O=C1c2cccnc2C(=O)c2c1c(C(=O)OCCc1ccccn1)c1ccccn21

# output
1: 3.15 µM; 2: 16.5 µM; 3: > 100 µM; 4: > 100 µM; 5: 1.55 µM

Quick request: TGI for each listed item, please.
1. CC(=O)OCC1OC([Se-])C(OC(C)=O)C(OC(C)=O)C1OC(C)=O.N#CCC[PH+](CCC#N)CCC#N.[Au+] (stereo not given)
2. O=C(O)c1ccc(Oc2nc3ccccc3s2)cc1
3. COC(=O)[C@@H](OC(C)=O)[C@@H](OC(C)=O)c1nnc2ccc(Cl)nn12
4. O=C(/C=C/c1ccc(O)c(O)c1)NC(COC(=O)/C=C/c1ccc(O)c(O)c1)C(=O)O (stereo not given)
5. CC(C)COP(C)(=O)C(N)(C(F)(F)F)C(F)(F)F (stereo not given)
6. O=c1[nH]c2ccccc2n2cc3ccccc3c12
7. COC(=O)c1ccc(C)cc1C1CN=NC12Cc1cc(C)ccc1C2=O (stereo not given)
8. NC(=N\N=C/c1ccc(Cl)cc1Cl)/C(N)=N\N=C/c1ccc(Cl)cc1Cl

# output
60.5 µM
> 100 µM
> 100 µM
> 100 µM
> 100 µM
> 100 µM
> 100 µM
> 100 µM
